All values here come from the supplement of paper PMC9170038.

Tested on: MS2 coat protein
EXPERIMENTAL PROTOCOL: apparent KD of MS2 coat protein; designed switch direction (-1 OFF switch, 1 ON switch): -1; higher = weaker reporter binding
CONDITIONS USED: Eterna round: R95; input ligand: microRNA oligo, concentration not stated
MEASUREMENT TYPE: apparent KD of MS2 coat protein (nM)
Numbers only; they are read as nM.

Study these solved cases before continuing.
1. CGAAGUAGAAACCGAUCCUACAUGAGGAUCACCCAUGUAGCAAGACGUGCACGCGAAGCUCGUCAGACUACCAGAAU [salish99_TOv1_r3_015] (puzzle: Sensor v3, turn-off variant 1)    257
2. AGGAGCAGAGGGAGAUCCAACAUGAGGAUCACCCAUGUCUCAUAAGCUUUUUGCUCAUCUUAUUGUACCUUGGUGCA [Mat - Sensor v3 - turn-off var 1 - JL Mod - D27] (puzzle: Sensor v3, turn-off variant 1)    12.5
3. CGUGCGUAUGUGAGGAUAUGCUGGUCCUUGGCUCGGCAGAAGGCACAUGAGGAUCACCCAUGUGGUGUCGUACG [salish99_Bmod_ex4_062] (puzzle: Brourd's mod of Exclusion 4)    152
4. GAUUGACAUGAGGAUCACCCAUGUGAGGAUAUCGUCUGGUACGUGUUGGCUGGCAUCUCGAGAAGGCGCAUAGG [Exclusion 1 V56] (puzzle: Exclusion 1)    59.4
5. CACCCUGAUGUCAGGAUAUGCGCGUCGCGCCUCGAGCAGAAGGGACAUGAGGAUCACCCAUGUUGUCUCUUGGG [Orisvedixe] (puzzle: Brourd's mod of Exclusion 4)    44.5

Next sequence, apparent KD of MS2 coat protein to be filled in.
Query: Supply reported apparent KD of MS2 coat protein belonging to this sequence: GAUUAUGCAAGCUUUUGGGACAUGAGGAUCACCCAUGUUCGUCUUAUUGAUCUAGGUACGCUGACGUACCUAGAUCU [JL-sv1-2.32 Brourd mod] (puzzle: Sensor v3, turn-off variant 1)
Reply: 62.2
